- System: Proteus vulgaris
- assay-name: MIC against Gram-negative bacteria: Proteus vulgaris
- Assay type: cell-based
- study-conditions: 96-well plate, 5×10^5 CFU/mL, 37° C., 10 h
Attribute: MIC P. vulgaris
endpoint-label: MIC P. vulgaris

1. PRT670 (DVDECASRASCPTGLCLNTEGSFACSACENGYWVNEDGTACE; listed as Homo sapiens)    12.5 µg/mL
2. PRT619 (CNCQGGGACDPDTGDCYSGDENPDIECADCPIGFYNDPHDPRSCKP; listed as Homo sapiens)    25 µg/mL
3. PRT658 (DVNECELMLAVCGAALCENVEGSFLCLCASDLEEYDAQEGHCR; listed as Homo sapiens)    50 µg/mL
4. PRT685 (DVNECLEGDFCFPHGECLNTDGSFACTCAPGYRPGPRGASCL; listed as Homo sapiens)    50 µg/mL
5. PRT665 (GIDRCAAGATNVCGPGTCVNLPDGYRCVCSPGYQLHPSQAYCT; listed as Homo sapiens)    50 µg/mL
6. PRT652 (DLDECAFPGVCPSGVCTNTAGSFSCKDCDGGYRPSPLGDSCE; listed as Homo sapiens)    25 µg/mL
7. PRT628 (CTCNQHGTCDPNTGICVCSHHTEGPSCERCLPGFYGNPFAGQADDCQP; listed as Homo sapiens)    12.5 µg/mL
